Source: ChEMBL document CHEMBL3400102

TEST_TARGET: Fibroblast growth factor receptor 1 (Homo sapiens, UniProt P11362)
Sequence (P11362 whole entry): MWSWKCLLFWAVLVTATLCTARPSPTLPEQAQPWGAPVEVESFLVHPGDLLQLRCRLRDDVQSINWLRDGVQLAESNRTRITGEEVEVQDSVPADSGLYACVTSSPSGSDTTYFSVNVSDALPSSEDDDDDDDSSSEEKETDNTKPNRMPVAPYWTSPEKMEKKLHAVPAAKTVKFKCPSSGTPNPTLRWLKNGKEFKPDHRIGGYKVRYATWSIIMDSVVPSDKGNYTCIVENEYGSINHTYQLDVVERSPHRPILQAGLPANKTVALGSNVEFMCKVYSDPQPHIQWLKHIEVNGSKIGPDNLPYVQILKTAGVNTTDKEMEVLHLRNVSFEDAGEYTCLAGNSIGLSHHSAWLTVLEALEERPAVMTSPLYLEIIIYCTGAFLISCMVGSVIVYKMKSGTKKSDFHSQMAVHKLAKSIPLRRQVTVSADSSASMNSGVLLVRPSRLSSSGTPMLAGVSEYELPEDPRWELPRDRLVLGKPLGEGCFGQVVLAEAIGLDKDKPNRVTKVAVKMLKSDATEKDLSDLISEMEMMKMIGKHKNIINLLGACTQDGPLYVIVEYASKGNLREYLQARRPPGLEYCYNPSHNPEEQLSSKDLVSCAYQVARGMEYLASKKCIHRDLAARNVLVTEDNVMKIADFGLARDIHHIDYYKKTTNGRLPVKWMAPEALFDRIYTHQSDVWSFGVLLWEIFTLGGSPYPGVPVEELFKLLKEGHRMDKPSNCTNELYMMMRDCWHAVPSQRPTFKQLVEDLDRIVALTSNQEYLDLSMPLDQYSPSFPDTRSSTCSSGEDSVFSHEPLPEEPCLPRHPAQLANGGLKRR
READOUT_TYPE: IC50 (µM)

Known results for molecules:
- COc1ccc(Nc2ncnc3scc(-c4ccccc4)c23)cc1: 3
- Oc1cccc(Nc2ncnc3sc(-c4ccccc4)cc23)c1: 0.16

[a] Cc1ccc(-c2csc3ncnc(Nc4cccc(O)c4)c23)cc1
[b] Fc1ccccc1Nc1ncnc2sc(-c3ccccc3)cc12
Prompt: Decide: a or b , by lowest recorded IC50. Mark your selection by writing its label.
Response: a
(a: 0.7 µM, b: 18.2 µM)

----------
TEST_TARGET: Fibroblast growth factor receptor 1 (Homo sapiens)
READOUT_TYPE: IC50 (µM)

* Cc1cc2c(Nc3ccc(O)cc3)ncnc2s1 | 5.6

[P] Oc1cccc(Nc2ncnc3scc(-c4ccccc4)c23)c1
[Q] Fc1ccc(Nc2ncnc3sc(-c4ccccc4)cc23)cc1
[R] CCOc1ccc(-c2csc3ncnc(Nc4cccc(O)c4)c23)cc1
Prompt: Order by IC50, ascending. # list labels per requested ordering
Response: P, Q, R
(P: 0.18 µM, Q: 4.3 µM, R: 12.5 µM)

----------
TEST_TARGET: Fibroblast growth factor receptor 1 (Homo sapiens, UniProt P11362)
READOUT_TYPE: IC50

* Fc1ccccc1Nc1ncnc2scc(-c3ccccc3)c12 | > 30 µM
* CCOC(=O)c1sc2ncnc(Nc3cccc(C(=O)O)c3)c2c1C | > 30 µM
* Fc1ccc(Nc2ncnc3scc(-c4ccc(Cl)cc4)c23)cc1 | > 30 µM
* Cc1ccc(-c2csc3ncnc(Nc4ccc(F)cc4)c23)cc1 | > 30 µM

Prompt: Fill in: IC50 of `CCOc1ccc(-c2csc3ncnc(Nc4ccc(O)cc4)c23)cc1` is ___
Response: > 30 µM
